Target: Ba/F3 V617F cells (Homo sapiens, UniProt O60674, V617F, cells depend on it)
Sequence (O60674 whole entry V617F): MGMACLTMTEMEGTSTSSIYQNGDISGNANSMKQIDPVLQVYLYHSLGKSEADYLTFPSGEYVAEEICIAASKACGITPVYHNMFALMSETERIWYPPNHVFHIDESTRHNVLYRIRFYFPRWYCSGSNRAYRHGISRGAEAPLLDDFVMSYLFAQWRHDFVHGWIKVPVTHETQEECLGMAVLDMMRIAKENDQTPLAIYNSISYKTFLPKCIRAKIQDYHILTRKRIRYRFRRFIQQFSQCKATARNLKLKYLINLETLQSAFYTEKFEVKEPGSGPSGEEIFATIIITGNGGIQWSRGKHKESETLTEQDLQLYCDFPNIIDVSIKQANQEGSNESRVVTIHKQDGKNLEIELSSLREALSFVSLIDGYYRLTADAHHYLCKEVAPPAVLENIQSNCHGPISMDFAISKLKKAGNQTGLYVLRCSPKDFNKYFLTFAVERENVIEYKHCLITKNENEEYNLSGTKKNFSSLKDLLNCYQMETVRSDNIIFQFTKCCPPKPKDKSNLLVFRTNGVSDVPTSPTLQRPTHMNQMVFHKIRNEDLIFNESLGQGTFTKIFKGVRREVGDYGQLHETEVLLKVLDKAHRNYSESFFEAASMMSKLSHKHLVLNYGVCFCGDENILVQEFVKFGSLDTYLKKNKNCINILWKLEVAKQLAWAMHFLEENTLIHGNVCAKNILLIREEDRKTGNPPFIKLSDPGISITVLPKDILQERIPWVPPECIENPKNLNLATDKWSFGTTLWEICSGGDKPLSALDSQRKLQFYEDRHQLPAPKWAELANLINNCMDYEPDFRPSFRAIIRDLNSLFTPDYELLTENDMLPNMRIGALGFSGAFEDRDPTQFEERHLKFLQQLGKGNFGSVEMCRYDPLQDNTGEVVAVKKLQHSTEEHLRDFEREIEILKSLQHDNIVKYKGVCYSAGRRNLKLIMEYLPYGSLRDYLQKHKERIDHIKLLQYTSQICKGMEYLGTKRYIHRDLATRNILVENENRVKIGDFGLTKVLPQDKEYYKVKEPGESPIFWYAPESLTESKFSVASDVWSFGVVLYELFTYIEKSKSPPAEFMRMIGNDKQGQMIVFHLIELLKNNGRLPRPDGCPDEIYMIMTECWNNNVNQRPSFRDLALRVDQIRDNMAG
Experiment: Proliferation assay (Cell Titer-Glo, 72 h) utilizing Ba/F3 V617F cells
Type: cell-based, mouse
Conditions: Ba/F3 V617F cells, proliferation, level of activity to inhibit JAK2, read-out: IC50 (the source's name)

Smiles Input | Study System | GI50
CCNC(=O)N1C[C@@H]2C[C@H]1CN2c1ccc(Nc2nccc(-c3ccc(N4CCOCC4)nc3)n2)cc1C | Ba/F3 V617F cells (Homo sapiens, UniProt O60674, V617F, cells depend on it) | < 1000 nM
CN1C[C@@H]2C[C@H]1CN2c1ccc(Nc2nccc(-c3ccc(NC(=O)NC4CC4)cc3)n2)cc1 | Ba/F3 V617F cells (Homo sapiens, UniProt O60674, V617F, cells depend on it) | < 1000 nM
Cc1cc(Nc2nccc(-c3ccc(NC(=O)C(C)(C)C)cc3)n2)ccc1N1CC2CCC(C1)N2C | Ba/F3 V617F cells (Homo sapiens, UniProt O60674, V617F, cells depend on it) | < 1000 nM
CN(C)c1ccc(-c2nc(Nc3ccc(N4C[C@@H]5C[C@H]4CN5C)c(F)c3)ncc2F)cn1 | Ba/F3 V617F cells (Homo sapiens, UniProt O60674, V617F, cells depend on it) | 1000 to 10000 nM

====

Molecular target: Ba/F3 V617F cells (Homo sapiens, UniProt O60674, V617F, cells depend on it)
Assay: Proliferation assay (Cell Titer-Glo, 72 h) utilizing Ba/F3 V617F cells
Assay type: cell-based, mouse
Settings: Ba/F3 V617F cells, proliferation, level of activity to inhibit JAK2, read-out: IC50 (the source's name)
Listing of entries alongside the reported GI50.
Recorded Metric: GI50

Smiles Input | Recorded Metric | Experimental Value
CCOc1ccc(-c2ccnc(Nc3ccc(N4C[C@@H]5C[C@H]4CN5C)c(C)c3)n2)cn1 | GI50 | < 1000 nM
Cc1cc(Nc2nccc(-c3ccc(NS(C)(=O)=O)nc3)n2)ccc1N1CC2CCC(C1)N2C | GI50 | < 1000 nM
Cc1cc(Nc2nccc(-c3ccc(N4CCOCC4)nc3)n2)ccc1N1C[C@@H]2C[C@H]1CN2CC(F)(F)F | GI50 | 1000 to 10000 nM
Cc1cc(Nc2nccc(-c3ccc(C(=O)Nc4ccccn4)cc3)n2)ccc1N1C[C@@H]2C[C@H]1CN2C | GI50 | < 1000 nM
Cc1cc(Nc2nccc(-c3ccc4ncn(C)c4c3)n2)ccc1N1C[C@@H]2C[C@H]1CN2C | GI50 | < 1000 nM
Cc1cc(Nc2ncc(C)c(-c3ccc(N4CCOCC4)nc3)n2)ccc1N1C[C@@H]2C[C@H]1CN2C | GI50 | < 1000 nM
CCOc1ccc(-c2ccnc(Nc3ccc(N4C[C@@H]5C[C@H]4CN5C)c(F)c3)n2)cn1 | GI50 | 1000 to 10000 nM

====

Molecular target: Ba/F3 V617F cells (Homo sapiens, UniProt O60674, V617F, cells depend on it)
Test: Proliferation assay (Cell Titer-Glo, 72 h) utilizing Ba/F3 V617F cells
Assay type: cell-based, mouse
Settings: Ba/F3 V617F cells, proliferation, level of activity to inhibit JAK2, read-out: IC50 (the source's name)
Recorded Metric: GI50

Smiles Input | Recorded Metric | Experimental Value
CN1C[C@@H]2C[C@H]1CN2c1ccc(Nc2nccc(-c3cncc(S(C)(=O)=O)c3)n2)cc1C(F)(F)F | GI50 | < 1000 nM
Cc1cc(Nc2nccc(-c3ccc(NC4CCCCC4)nc3)n2)ccc1N1CC2(C)CN(C)CC(C)(C1)C2 | GI50 | < 1000 nM
CN1C[C@@H]2C[C@H]1CN2c1ccc(Nc2nccc(-c3cc[nH]c3)n2)cc1 | GI50 | 1000 to 10000 nM
Cc1cc(Nc2nccc(-c3cnc(N4CCOCC4)nc3)n2)ccc1N1C[C@@H]2C[C@H]1CO2 | GI50 | 1000 to 10000 nM
CN1CC2(C)CN(c3ccc(Nc4nccc(-c5ccc(N6CCOCC6)nc5)n4)cc3F)CC(C)(C1)C2 | GI50 | < 1000 nM
CN1C[C@@H]2C[C@H]1CN2c1ccc(Nc2nccc(-c3ccc(NCc4ccccc4)nc3)n2)cc1F | GI50 | < 1000 nM
CN1C[C@@H]2C[C@H]1CN2c1ccc(Nc2nccc(-c3ccc(N4CCOCC4)nc3)n2)cc1C(F)(F)F | GI50 | < 1000 nM

====

Biological target: Ba/F3 V617F cells (Homo sapiens, UniProt O60674, V617F, cells depend on it)
Assay: Proliferation assay (Cell Titer-Glo, 72 h) utilizing Ba/F3 V617F cells
Format: cell-based, mouse
Conditions: Ba/F3 V617F cells, proliferation, level of activity given as class symbol, read-out: IC50 (the source's name)
Recorded Metric: GI50

Molecule | Recorded Metric | Experimental Value
Cc1cc(Nc2nccc(-c3cnc4c(c3)OCCN4C)n2)ccc1N1C[C@@H]2C[C@H]1CO2 | GI50 | < 1 µM
Cc1cc(Nc2nccc(-c3ccc(OC4CCOCC4)nc3)n2)ccc1N1C2CCC1CC(N1CCOCC1)C2 (stereo not shown) | GI50 | < 1 µM
COCCN(C)c1ccc(-c2ccnc(Nc3ccc(N4CC5(C)CN(C)CC(C)(C4)C5)c(C)c3)n2)cn1 | GI50 | < 1 µM
Cc1cc(Nc2nccc(-c3ccc(NCCC(C)C)nc3)n2)ccc1N1C[C@@H]2C[C@H]1CN2C | GI50 | < 1 µM
Cc1cc(Nc2nccc(-c3ccc4c(c3)SCC(=O)N4)n2)ccc1N1C[C@@H]2C[C@H]1CN2C | GI50 | < 1 µM
Cc1cc(Nc2nccc(-c3ccc(N4CCOCC4)nc3)n2)ccc1N1C[C@@H]2C[C@H]1CN2S(C)(=O)=O | GI50 | < 1 µM
Cc1cc(Nc2nccc(-c3ccc(N4C[C@@H]5C[C@H]4CO5)nc3)n2)ccc1N1CCN2CCC1CC2 | GI50 | < 1 µM
Cc1cc(Nc2nccc(-c3cnc(N)c(CCCC(=O)OC(C)C)c3)n2)ccc1N1C[C@@H]2C[C@H]1CN2C | GI50 | < 1 µM
Cc1cc(Nc2nccc(-c3cnc4c(c3)OCC(=O)N4)n2)ccc1N1C[C@@H]2C[C@H]1CO2 | GI50 | < 1 µM
Cc1cc(Nc2nccc(-c3cnc4c(c3)OCCN4C)n2)ccc1N1C[C@@H]2C[C@H]1CN2S(C)(=O)=O | GI50 | < 1 µM
Cc1cc(Nc2nccc(-c3ccc(N4CCOCC4)nc3)n2)ccc1N1C[C@@H]2C[C@H]1CO2 | GI50 | < 1 µM
CCCNc1ccc(-c2ccnc(Nc3ccc(N4CC5(C)CN(C)CC(C)(C4)C5)c(C)c3)n2)cn1 | GI50 | < 1 µM
Cc1cc(Nc2nccc(-c3ccc(OC4CCOCC4)nc3)n2)ccc1N1C[C@@H]2C[C@H]1CN2C1CCCC1 | GI50 | < 1 µM
CCC(=O)N1C[C@@H]2C[C@H]1CN2c1ccc(Nc2nccc(-c3ccc(N4CCOCC4)nc3)n2)cc1C | GI50 | < 1 µM
Cc1cc(Nc2nccc(-c3ccc(N4CCOCC4)nc3)n2)ccc1N1C[C@@H]2C[C@H]1CN2C | GI50 | < 1 µM
Cc1cc(Nc2nccc(-c3ccc(N4CCOCC4)nc3)n2)ccc1N1C[C@@H]2C[C@H]1CN2CC(C)C | GI50 | < 1 µM

====

Target: Ba/F3 V617F cells (Homo sapiens, UniProt O60674, V617F, cells depend on it)
Test: Proliferation assay (Cell Titer-Glo, 72 h) utilizing Ba/F3 V617F cells
Type: cell-based, mouse
Conditions: Ba/F3 V617F cells, proliferation, level of activity to inhibit JAK2, read-out: IC50 (the source's name)
Listing of entries alongside the reported GI50.
Recorded Metric: GI50

Molecule | Recorded Metric | Experimental Value
Cc1cc(Nc2nccc(-c3cnc4c(c3)OC(C)(C)C(=O)N4C)n2)ccc1N1C[C@@H]2C[C@H]1CN2C [compound 125] | GI50 | < 1000 nM
Cc1cc(Nc2nccc(-c3ccc(C#N)nc3)n2)ccc1N1C[C@@H]2C[C@H]1CN2C [compound 111] | GI50 | 1000 to 10000 nM
CN1C[C@@H]2C[C@H]1CN2c1ccc(Nc2nccc(-c3ccc(N4CCOCC4)cc3)n2)cc1F [compound 47] | GI50 | 1000 to 10000 nM
Cc1cc(Nc2nccc(-c3ccc(Cc4ccccc4)nc3)n2)ccc1N1CC2(C)CN(C)CC(C)(C1)C2 [compound 90] | GI50 | < 1000 nM
Cc1cc(Nc2nccc(-c3ccc(N4CCOCC4)nc3)n2)ccc1N1CC2(C)CN(C)CC(C)(C1)C2 [compound 75] | GI50 | < 1000 nM

====

Target: Ba/F3 V617F cells (Homo sapiens, UniProt O60674, V617F, cells depend on it)
Test: Proliferation assay (Cell Titer-Glo, 72 h) utilizing Ba/F3 V617F cells
Format: cell-based, mouse
Details: Ba/F3 V617F cells, proliferation, level of activity to inhibit JAK2, read-out: IC50 (the source's name)
Listing of entries alongside the reported GI50.

Compound | GI50
CC(=O)Nc1ccc(-c2ccnc(Nc3ccc(N4C[C@@H]5C[C@H]4CO5)c(C)c3)n2)cn1 | < 1000 nM
CN1C[C@@H]2C[C@H]1CN2c1ccc(Nc2nccc(-c3ccc4c(c3)NC(=O)CO4)n2)cc1F | < 1000 nM
Cc1cc(Nc2nccc(-c3cnc4c(c3)OCCN4)n2)ccc1N1CC2(C)CN(C)CC(C)(C1)C2 | < 1000 nM
Cc1cc(Nc2nccc(-c3cnc(NC(=O)C4CC4)nc3)n2)ccc1N1C[C@@H]2C[C@H]1CN2C | < 1000 nM
Cc1cc(Nc2nccc(-c3cncc(C(=O)N4CCOCC4)c3)n2)ccc1N1C[C@@H]2C[C@H]1CN2C | < 1000 nM
Cc1cc(Nc2nccc(-c3ccc4nccn4c3)n2)ccc1N1C[C@@H]2C[C@H]1CN2C | < 1000 nM
CN1CC2(C)CN(c3ccc(Nc4nccc(-c5ccc(N(C)C)nc5)n4)cc3F)CC(C)(C1)C2 | < 1000 nM
CN1C[C@@H]2C[C@H]1CN2c1ccc(Nc2nccc(-c3cnc4c(c3)OCCN4)n2)cc1C(F)(F)F | < 1000 nM
Cc1cc(Nc2nccc(-c3ccc(N4CCOCC4)nc3)n2)ccc1N1CCN2CCC1C2 (centres unmarked) | < 1000 nM
Cc1cc(Nc2nccc(-c3ccc(-c4ncc(-c5ccc(N(C)C)cc5)o4)cc3)n2)ccc1N1C[C@@H]2C[C@H]1CN2C | 1000 to 10000 nM
CCC(=O)N1C[C@@H]2C[C@H]1CN2c1ccc(Nc2nccc(-c3cnc4c(c3)OC(C)(C)C(=O)N4)n2)cc1C | < 1000 nM
CN1C[C@@H]2C[C@H]1CN2c1ccc(Nc2nccc(-c3cnc(N4CCOCC4)cn3)n2)cc1F | 1000 to 10000 nM
Cc1cc(Nc2nccc(-c3cnc4c(c3)OC(C)(C)C(=O)N4)n2)ccc1N1C[C@@H]2C[C@H]1CN2C | < 1000 nM
CN1C[C@@H]2C[C@H]1CN2c1ccc(Nc2nccc(-c3cc[nH]c3)n2)cc1C(F)(F)F | < 1000 nM
Cc1cc(Nc2nccc(-c3cnc4c(c3)OC(C)(C)C(=O)N4)n2)ccc1N1CC2CCC(C1)N2C | < 1000 nM
CN1C[C@@H]2C[C@H]1CN2c1ccc(Nc2nccc(-c3cnc4c(c3)OC(C)(C)C(=O)N4)n2)cc1 | < 1000 nM
CN1CCOc2cc(-c3ccnc(Nc4ccc(N5C[C@@H]6C[C@H]5CN6C)cc4)n3)cnc21 | < 1000 nM
Cc1cc(Nc2nccc(-c3cc4cc(C#N)ccc4[nH]3)n2)ccc1N1C[C@@H]2C[C@H]1CN2C | < 1000 nM
Cc1cc(Nc2nccc(-c3cnc4c(c3)OC(C)(C)C(=O)N4)n2)ccc1N1CCN2CCC1CC2 | < 1000 nM
CN(C)c1ccc(-c2ccnc(Nc3ccc(N4C[C@@H]5C[C@H]4CN5C)c(F)c3)n2)cc1 | 1000 to 10000 nM
Cc1cc(Nc2nccc(-c3ccc4cc[nH]c4c3)n2)ccc1N1C[C@@H]2C[C@H]1CN2C | < 1000 nM
Cc1cc(Nc2nccc(-c3ccc4c(c3)CC(=O)N4)n2)ccc1N1CCN2CCC1C2 (centres unmarked) | < 1000 nM
CCOC(C)c1ccc(-c2ccnc(Nc3ccc(N4C[C@@H]5C[C@H]4CN5C)c(C)c3)n2)cc1 (some centres unmarked) | 1000 to 10000 nM
Cc1cc(Nc2nccc(-c3cnc4c(c3)OCCN4C)n2)ccc1N1C[C@@H]2C[C@H]1CN2C | < 1000 nM
Cc1cc(Nc2nccc(-c3ccc(NS(C)(=O)=O)nc3)n2)ccc1N1C[C@@H]2C[C@H]1CN2C | 1000 to 10000 nM
Cc1cc(Nc2nccc(-c3cnc4[nH]ccc4c3)n2)ccc1N1C[C@@H]2C[C@H]1CN2CC1CC1 | < 1000 nM

Data provenance: patent US9624229B2
